- Assay Overview: Toxicity in ip dosed NMRI nu/nu mouse assessed as maximum tolerated dose
- Format: organism-based
- Assay Conditions: in vivo
Readout Type: MTD (mg/kg)
Provide only the numeric value, understood in mg/kg.

Problem: Which MTD is reported for this compound? CC(O)(COc1ccc(S(F)(F)(F)(F)F)cc1)C(=O)Nc1cc(C(F)(F)F)cc(C(F)(F)F)c1 (racemic)
Solution: 100

----------
- System: LNCaP
- Assay Overview: Antiproliferative activity against human LNCAP cells assessed as T/C value at 3.2 x 10^1 uM incubated for 96 hrs by propidium iodide based 2D monolayer assay
- Type: functional
Consider the following compounds; for each one, report its T/C.
The response must be a number in % with no trailing unit.

Problem: Requested read-out T/C, target or system LNCaP, entry CC(O)(COc1cc(C(F)(F)F)cc(C(F)(F)F)c1)C(=O)Nc1cccc(S(F)(F)(F)(F)F)c1 (racemic)
Solution: 1

Problem: Query T/C on LNCaP for CC1(C)C(=O)N(c2ccc(C#N)cc2C(F)(F)F)C(=S)N1c1cccc(S(F)(F)(F)(F)F)c1
Solution: 32

Problem: Lab request: please report T/C under test system LNCaP for CC(O)(COc1ccc(S(F)(F)(F)(F)F)cc1)C(=O)Nc1cc(C(F)(F)F)cc(C(F)(F)F)c1 (racemic)
Solution: 2

Problem: Value wanted: T/C (LNCaP) of entry CNC(=O)c1ccc(N2C(=S)N(c3ccc(C#N)c(C(F)(F)F)c3)C(=O)C2(C)C)cc1F [ENZALUTAMIDE]
Solution: 28

----------
- Test system: LNCaP
- Assay Overview: Antiproliferative activity against human LNCAP cells assessed as T/C value at 3.2 x 10^1 uM incubated for 96 hrs by propidium iodide based 2D monolayer assay
- Type: functional
For each of the compounds below, state its T/C.
Kindly provide the numeric value in % only, without the unit symbol.

Problem: Look up T/C for this compound: CC(O)(COc1ccccc1C(F)(F)F)C(=O)Nc1ccc(S(F)(F)(F)(F)F)cc1 (racemic)
Solution: 1

Problem: T/C lookup needed for CC(O)(CSc1cc(C(F)(F)F)cc(C(F)(F)F)c1)C(=O)Nc1cccc(C(F)(F)C(F)(F)F)c1 (racemic) , thanks.
Solution: 6

Problem: Would you kindly share the measured T/C for CC(O)(COc1cccc(S(F)(F)(F)(F)F)c1)C(=O)Nc1cc(C(F)(F)F)cc(C(F)(F)F)c1 (racemic) ?
Solution: 1

Problem: # T/C lookup, item CC1(C)C(=O)N(c2ccc(C#N)cc2C(F)(F)F)C(=S)N1c1ccc(S(F)(F)(F)(F)F)cc1
Solution: 10

Problem: Which measured T/C value corresponds to CC(O)(COc1ccc(C(F)(F)C(F)(F)F)cc1)C(=O)Nc1cc(C(F)(F)F)cc(C(F)(F)F)c1 (racemic) ?
Solution: 2

Problem: Item CC(O)(COc1cccc(S(F)(F)(F)(F)F)c1)C(=O)Nc1ccc([N+](=O)[O-])c(C(F)(F)F)c1 (racemic) has what recorded T/C?
Solution: -1

Problem: Please report the recorded T/C for CC(O)(COc1cc(C(F)(F)F)cc(C(F)(F)F)c1)C(=O)Nc1ccc(S(F)(F)(F)(F)F)cc1 (racemic) .
Solution: 2

Problem: What does the data say about its T/C? Entry: CC1(C)C(=O)N(c2cccc(S(F)(F)(F)(F)F)c2)C(=S)N1c1cccc(C(F)(F)F)c1
Solution: 33

# credit: ChEMBL document CHEMBL4364301
